System: nutsedge, yellow (yellow nutsedge, Cyperus esculentus)
assayName: Test C pre-/postemergence: nutsedge, yellow
Format: in vivo
conditionsUsed: Postemergence, 125 g ai/ha; scale 0 to 100, 0 no effect, 100 complete control
From the text: […] Treated plants and controls were maintained in a greenhouse for 13 to 15 days, after which time all species were compared to controls and visually evaluated. […]
Think of 5 as a floor: if Plant response rating, Nutsedge, Yellow stands on it or above, it is met; beneath it, not met.

Below, 4 compounds whose answers are already recorded.
>  <chemSmiles>
Cc1nn(-c2ccc(C(F)(F)F)cc2)nc1Cc1ccnc(C(F)(F)F)c1

>  <classification>
not met

$$$$
>  <chemSmiles>
Cc1nn(-c2ccc(C(F)(F)F)cc2)nc1Cc1cccc(C(F)(F)F)c1

>  <classification>
not met

$$$$
>  <chemSmiles>
Cc1nn(-c2ccnc(C(F)(F)F)c2)nc1Cc1ccnc(C(F)(F)F)c1

>  <classification>
met

$$$$
>  <chemSmiles>
CCOc1nn(-c2ccc(F)cc2)nc1Cc1ccnc(C(F)F)c1

>  <classification>
met

$$$$

Qu. Hi team, for `Fc1ccc(-n2nc(Cc3ccnc(C(F)(F)F)c3)c(OCC(F)(F)F)n2)cc1` , is the recorded Plant response rating, Nutsedge, Yellow at or above 5?
Ans. met
